- MEASUREMENT DESCRIPTION: Solubility of the poorly water-soluble (pharmaceutical) compound, Table 1
- Type: physicochemical
- CONDITIONS: poorly-water-soluble compound (pharmaceutical compound) itself
OBSERVED PROPERTY: solubility (µg/mL)
Just the number please, in µg/mL, no unit attached.

For reference, reported solubility for CC(C)Cc1ccc(C(C)C(=O)O)cc1 (stereo not shown) [Ibuprofen, ibuprofen] stands at 20
